Form field: % Compound Remaining Mean (one value per entry).
- TEST_DETAILS: In-vitro metabolism of LDAA compounds using liver microsomes
- Format: in vitro ADME, human
- EXPERIMENTAL_SETUP: incubation time 15 minutes; 1.0E−07M
Counter-ions that a name gives are not always drawn. Non-standard residues stand in square brackets, D forms with d. Residues, ends and D or L forms follow the SMILES beside them. Dopa = N[C@@H](Cc1ccc(O)c(O)c1)C(=O)O
VALUE_KIND: % Compound Remaining Mean (%)

MOLECULE	VALUE_KIND	UNIT_TAG	OBSERVED
N[C@@H](Cc1ccc(O)c(O)c1)C(=O)N[C@@H](Cc1c[nH]c2ccccc12)C(=O)O [LD-Trp TFA salt, Levodopa Tryptophan] (H-[Dopa]-Trp-OH)	% Compound Remaining Mean	%	109
N[C@@H](CSC[C@@H](NC(=O)[C@@H](N)Cc1ccc(O)c(O)c1)C(=O)O)C(=O)O (single isomer, unassigned; peak 1) [LD-LA1 TFA salt, Levodopa Lanthionine Peak 1 TFA Salt]	% Compound Remaining Mean	%	110
NC(=O)CC[C@H](NC(=O)[C@@H](N)Cc1ccc(O)c(O)c1)C(=O)O [LD-Gln TFA salt, Levodopa Glutamine TFA Salt] (H-[Dopa]-Gln-OH)	% Compound Remaining Mean	%	103
